- System: Staphylococcus aureus
Where a name gives a salt, the structure may show the parent alone.
Recorded MIC for the following compounds
Write it as a number; the unit µg/mL goes unstated.

In [3]: df
Out[3]:
                                   compound  observation_type  recorded_number
0  [H]/N=C(\N/C(=N/[H])NCCCCCCNC(=N)NC(=N)Nc1ccc(Cl)cc1)Nc1ccc(Cl)cc1 [CHX, chlorhexidine gluconate]               MIC              2.5

Query: Write down the reported MIC (system: Staphylococcus aureus) of COc1ccc2cc3[n+](cc2c1OC)CCc1cc2c(cc1-3)OCO2
Response: 250

Query: Write down the reported MIC (system: Staphylococcus aureus) of CN(C)[C@@H]1C(O)=C(C(N)=O)C(=O)[C@@]2(O)C(O)=C3C(=O)c4c(O)cccc4[C@@](C)(O)[C@H]3C[C@@H]12 [Tet, tetracycline HCl]
Response: 1.53

Query: Write down the reported MIC (system: Staphylococcus aureus) of C[C@H]1c2cccc(O)c2C(=O)C2=C(O)[C@]3(O)C(=O)C(C(N)=O)=C(O)[C@@H](N(C)C)[C@@H]3[C@@H](O)[C@@H]21 [Dox, doxycycline HCl]
Response: 1.53

Data credit: patent US20070098649A1
